Tested on: K-562 leukemia
Assay: NCI-60 one-dose screen, 48 h
Conditions: 10 µM unless noted
Compounds without any hit were thinned out: in the full panel of roughly 83,000, 20% have a hit. Activity calls are given as the source filed them. Rule for the calls: active = growth percent below 10; inactive = the rest.
Write down the outcome that applies. Available outcomes: Y for active, N for inactive

compound: C=CCOC1=CC(=O)c2ccccc2C1=O
experimental_target: K-562 leukemia
cat: N
--
compound: Cc1ccc(S(=O)(=O)N/N=C\c2cc(Cl)ccc2O)cc1
experimental_target: K-562 leukemia
cat: N
--
compound: COc1ccc(NC(=O)CSc2nnc(-c3cc(-c4ccccc4)nc4ccccc34)n2-c2ccccc2)cc1
experimental_target: K-562 leukemia
cat: N
--
compound: O=c1[nH]nc(-c2ccccc2)c2c(-c3ccccc3)onc12
experimental_target: K-562 leukemia
cat: Y

// outcome(item) with item = CC1(C)CC(=O)CC2(C1)N=C(N)Nc1nc3ccccc3n12 (stereo unspecified)
N

Would you mind telling me which call this test gave Cc1ccc(-n2nc3c(c(C#N)c2=O)CC(c2ccccc2Cl)C([N+](=O)[O-])=C3O)cc1 (stereo unspecified) ?
N

src = PubChem BioAssay (NCI)
